Data origin, for the record: ChEMBL document CHEMBL1201862

Measured GI50, listed per entry.
Test system: NCI-H226
Assay: NCI tumour cell line growth inhibition, 48 h
Calls of active or inactive are those of the source. Rule as the data show it: active = GI50 up to about 1.1 µM and inactive = higher.

For orientation, consider the following solved cases.
CCN1C[C@]2(C)CC[C@H](OC)C34C5C[C@@H]6[C@@H](OC)C[C@@](OC)(C5[C@H]6OCc5ccccc5)C(C13)[C@H](OC(C)=O)[C@@H]42 (some centres not stated) | > 100 µM (inactive)
Cn1c(=O)nc2n(-c3ccc(Br)cc3)c3ccccc3nc-2c1=O | 11 µM (inactive)

Q: // returns reported GI50 for input N=c1c2c3n(c4c(=O)n(-c5ccccc5)c(=S)n(c(=O)n1-c1ccccc1)c24)CCCCC3
Ans: > 100 µM (inactive)

Q: What about this compound? Brc1ccc(/N=N/N2CCCCC2)cc1
Ans: > 100 µM (inactive)

Q: What about this compound? COc1cc2c(c(OC)c1OC)-c1ccc(SC)c(=O)cc1[C@@H](NC(=O)c1ccc(C#N)cc1)CC2
Ans: < 0.01 µM (active)

Q: What about this compound? Cc1ccc(/C=N/n2c(=O)[nH]c3ccccc3c2=O)cc1
Ans: > 100 µM (inactive)

Q: What about this compound? N#C/C(=C\c1ccccc1)C(=O)Nc1nnc(-c2ccccc2)o1
Ans: 44.9 µM (inactive)

----------
Measured GI50, listed per entry.
Test system: NCI-H522
Assay: NCI tumour cell line growth inhibition, 48 h
Calls of active or inactive are those of the source. Cut-off read from the data, not from the text of the source: active = GI50 up to about 1.1 µM and inactive = higher.

For orientation, consider the following solved cases.
CC1=C(CCC(C)CO)O[C@H]2C[C@H]3[C@@H]4CC[C@H]5C[C@@H](O)CC[C@]5(C)[C@H]4CC(=O)[C@]3(C)[C@@H]12 (stereo partly specified) | 9.62 µM (inactive)
CCCCCCCCCCCCOCCCCCCCCC/C=C/c1ccc2c(c1)OCCOCCOCCOCCO2 | 13.2 µM (inactive)
CC(=O)Nc1ccc2c3c(cc(O)c2c1)N(C(=O)CCCCCC(=O)N1CC(CCl)c2c1cc(O)c1cc(NC(C)=O)ccc21)CC3CCl (stereo unspecified) | < 0.01 µM (active)
C=CCCC12CCCC(=O)C1Sc1ccc3ccccc3c12 (stereo unspecified) | 15 µM (inactive)
Cc1ccc(NC(=O)SCCC(=O)O)cc1NC(=O)SCCC(=O)O | > 100 µM (inactive)
COc1cccc(NC(=O)CC(=O)n2nc(C)c(/N=N/c3ccccc3)c2C)c1 | > 100 µM (inactive)
Cc1cc(S(=O)(=O)Nc2nc(-c3ccccn3)n[nH]2)c(S)cc1Cl | 27.4 µM (inactive)
COc1ccc2c(c1)c1c(n2CCN2CCOCC2)-c2ccccc2CC1 | 35.4 µM (inactive)

Q: // returns reported GI50 for input Clc1ccc(SCCSCCCCCCCCCCSCCSc2ccc(Cl)cc2)cc1
Ans: > 100 µM (inactive)

Q: What about this compound? Cc1ccc(S(=O)OC2c3ccccc3Cc3ccccc32)cc1 (stereo unspecified)
Ans: 13.9 µM (inactive)

Q: What about this compound? O=C(O)c1cscc1Cc1cccs1
Ans: > 100 µM (inactive)

----------
System: OVCAR-5
Assay: NCI tumour cell line growth inhibition, 48 h
Active and inactive are the calls of the source. Rule as the data show it: active = GI50 up to about 1.1 µM and inactive = higher.
quantity.kind: GI50

Q: Under OVCAR-5: GI50 value of CCOC(=O)c1ccc(/N=C2\SC(=S)N(c3ccc(F)cc3)\C2=N/c2ccc(C(=O)OCC)cc2)cc1 ?
Ans: 23 µM (inactive)

Q: What about this compound? Cc1cc(C)c(N[S+]([O-])c2cccc(C(F)(F)F)c2)c(C)c1 (stereo unspecified)
Ans: > 100 µM (inactive)

Q: What about this compound? CCC12C=CCN3CC[C@]4(C(=C(C(=O)OC)[C@@H]1Nc1ncnc5c1ncn5C1OC(COC(C)=O)C(OC(C)=O)C1OC(C)=O)Nc1ccccc14)C32 (stereo partly specified)
Ans: 3.47 µM (inactive)

Q: What about this compound? Cc1cc(Cl)ccc1NC(=O)/C(CC(=O)CC(c1ccccc1)c1c(O)c2ccccc2oc1=O)=N\O (stereo unspecified)
Ans: > 100 µM (inactive)

Q: What about this compound? COC(=O)[C@H]1C=NN[C@@H]1C(=O)N1[C@H]2CC3CC[C@@]2(CS1(=O)=O)C3(C)C
Ans: > 100 µM (inactive)

Q: What about this compound? CN(C)CC1CCCC/C1=N/OC(=O)c1ccc(Cl)cc1 (stereo unspecified)
Ans: > 100 µM (inactive)

Q: What about this compound? COC(=O)Cn1c(=O)oc2nc(-c3ccccc3)cc(C(F)(F)F)c21
Ans: > 100 µM (inactive)

Q: What about this compound? O=C1c2ccccc2C(=O)N1CC1S(=O)(=O)OCCOS1(=O)=O
Ans: > 100 µM (inactive)

Q: What about this compound? C=C(C(=C)P(=S)(c1ccccc1)c1ccccc1)P(=S)(c1ccccc1)c1ccccc1
Ans: > 100 µM (inactive)

Q: What about this compound? O=C(O)c1c(CC(Cc2ccc3c(c2)CCC3)C(=O)O)ccc2c1CCC2 (stereo unspecified)
Ans: > 100 µM (inactive)

Q: What about this compound? COc1cc2c(c(OC)c1OC)-c1ccc(OC)c(=O)cc1[C@@H](N(C)C=O)CC2
Ans: > 8.51 µM (inactive)
